Listing: Emax of selected compounds
- TESTED_TARGET: ER-α (Homo sapiens, UniProt P03372)
- Construct: endogenous in cells; host or cells: MCF-7
- Sequence (P03372 whole entry): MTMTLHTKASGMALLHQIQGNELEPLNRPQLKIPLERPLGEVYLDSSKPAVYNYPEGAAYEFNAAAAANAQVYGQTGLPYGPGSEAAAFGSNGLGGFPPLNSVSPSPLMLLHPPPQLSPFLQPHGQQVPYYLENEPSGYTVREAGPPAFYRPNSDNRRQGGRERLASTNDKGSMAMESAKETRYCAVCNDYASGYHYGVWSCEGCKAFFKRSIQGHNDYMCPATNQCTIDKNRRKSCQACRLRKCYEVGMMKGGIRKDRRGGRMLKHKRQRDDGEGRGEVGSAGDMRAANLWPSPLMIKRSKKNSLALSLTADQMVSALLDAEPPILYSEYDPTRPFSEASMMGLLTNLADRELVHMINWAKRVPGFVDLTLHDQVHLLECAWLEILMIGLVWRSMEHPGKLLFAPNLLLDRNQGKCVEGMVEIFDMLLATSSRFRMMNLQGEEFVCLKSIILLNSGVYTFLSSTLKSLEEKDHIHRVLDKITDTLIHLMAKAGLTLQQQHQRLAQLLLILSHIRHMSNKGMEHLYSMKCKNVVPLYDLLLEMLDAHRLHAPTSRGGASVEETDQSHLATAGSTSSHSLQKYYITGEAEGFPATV
- EXPERIMENT_NOTES: Breast Cancer Cell ER-α in Cell Western Assay (SP1)
- Type: cell-based
- MEASUREMENT_SETUP: MCF7, read-out: ER In-Cell Western Assay (SP1); Max Response
- Method: MCF-7 cells were adjusted to a concentration of 200,000 cells per mL in RPMI containing 10% charcoal-stripped FBS and 20 mM HEPES. […] Integrated intensities in the 800 nm channel and 700 nm channel were measured to determine levels of ER and DNA respectively. Percent ER levels were determined as follows: (Integrated intensity 800 nm sample/integrated intensity 700 nm sample)/(Integrated intensity 800 nm untreated cells/integrated intensity 700 nm untreated cells)×100=% ER levels.

COMPOUND | Emax
CCN(CCF)CCOc1ccc(C2Oc3ccc(O)cc3C(C)=C2c2cccc(O)c2)cc1 (centres unmarked) | < 60%
CCN(CCCF)CCOc1ccc(C2Oc3ccc(O)cc3C(C)=C2c2cccc(O)c2)cc1 (centres unmarked) | < 60%
CC1=C(c2ccc(F)c(O)c2)C(c2ccc(OC[C@H](C)N3CC[C@@H](CF)C3)cc2)Oc2ccc(O)cc21 (some centres unmarked) | > 85%
CC1=C(c2cccc(O)c2)C(c2ccc(OCCN3CCC[C@H]3CF)cc2)Oc2ccc(O)cc21 (some centres unmarked) | 60 to 85%
CC1=C(c2ccc(O)c(F)c2)C(c2ccc(OCCN3CC[C@@H](CF)C3)cc2)Oc2ccc(O)cc21 (some centres unmarked) | > 85%
CC1=C(c2cc(O)cc(F)c2)C(c2ccc(OCCN3CC[C@@H](CF)C3)cc2)Oc2ccc(O)cc21 (some centres unmarked) | > 85%

get_value(item= CC1=C(c2cc(O)c(F)c(F)c2)C(c2ccc(OCCN3CC[C@@H](CF)C3)cc2)Oc2ccc(O)cc21 (some centres unmarked) , readout=Emax) returns > 85%

Note to self: Emax recorded for CC1=C(c2cccc(O)c2)C(c2ccc(OCCN3CCC(F)CC3)cc2)Oc2ccc(O)cc21 (centres unmarked) was 60 to 85%

Data point: CC1=C(c2cc(O)ccc2F)C(c2ccc(OCCN3CC[C@@H](CF)C3)cc2)Oc2ccc(O)cc21 (some centres unmarked) ; Emax = > 85%

Entry CC1=C(c2ccc(C#N)cc2)C(c2ccc(OC[C@H](C)N3CC[C@@H](CF)C3)cc2)Oc2ccc(O)cc21 (some centres unmarked) — recorded Emax = > 85%

So for CC1=C(c2cc(O)c(F)c(F)c2)C(c2ccc(OC[C@H](C)N3CC[C@@H](CF)C3)cc2)Oc2ccc(O)cc21 (some centres unmarked) , the logged Emax turned out to be > 85%

----------
- TESTED_TARGET: ER-α (Homo sapiens, UniProt P03372)
- Construct: endogenous in cells; host or cells: MCF-7
- EXPERIMENT_NOTES: Breast Cancer Cell ER-α in Cell Western Assay (SP1)
- Type: cell-based
- MEASUREMENT_SETUP: MCF7, read-out: ER In-Cell Western Assay (SP1); Max Response
Known Emax of a selection of compounds

COMPOUND | TEST_VALUE
CC1=C(c2cccc(O)c2)C(c2ccc(OC[C@H](C)N3CC[C@@H](CF)C3)cc2)Oc2ccc(O)cc21 (stereo partly shown) | > 85%
CC1=C(c2cccc(O)c2)C(c2ccc(OCCN3CC[C@@H](C(F)F)C3)cc2)Oc2ccc(O)cc21 (stereo partly shown) | > 85%
CC1=C(c2cc(O)ccc2F)C(c2ccc(OC[C@H](C)N3CC[C@@H](CF)C3)cc2)Oc2ccc(O)cc21 (stereo partly shown) | > 85%
CC1=C(c2cccc(O)c2)[C@@H](c2ccc(OC[C@H](C)N3CC[C@@H](CF)C3)cc2)Oc2ccc(O)cc21 (single isomer, unassigned) | > 85%
CC1=C(c2cccc(O)c2)C(c2ccc(OCCN(C)CCCF)cc2)Oc2ccc(O)cc21 (stereo not shown) | < 60%

Value of Emax reported for the compound CC1=C(c2cccc(O)c2)C(c2ccc(OCCN3CCC[C@@H](CF)C3)cc2)Oc2ccc(O)cc21 (stereo partly shown) is < 60%

Memo: CC1=C(c2ccc(Cl)cc2)C(c2ccc(OCCN3CC[C@@H](CF)C3)cc2)Oc2ccc(O)cc21 (stereo partly shown) , reported Emax: > 85%
